EXPERIMENTAL_PROTOCOL: soluble fraction after stress (log2 fold change); higher = more stays soluble; pooled small domains, quantitative proteomics;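 note: 20 min heating vs room temperature control held 20 min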
MEASUREMENT_SETUP: stress: 75 degC
Measured soluble fraction (log2) values are reported for all entries that follow.

Check out these entries, answers already filled in.
{"columns": ["CHAIN_SEQUENCE", "soluble fraction (log2)"],
 "data": [
  ["HMPVFSAEQVAKAEADVQKVANKVQEAGADVEKLTTIHNWLLAREKYMPPDLFSTANQIIATAFQKAG", 0.525],
  ["HMIVSEYIIIGGDKKEYGPVSMGEVGEWVQGGRANGDSKIKKVGTEEWGRLRDFPEFSAYLS", 0.121],
  ["HMSVLSEQIKEQLMEDIFHKKYKAGDRIVESALARELGVSQASVREALRSLIAMGFLENEPFKGITVR", -0.000514],
  ["HMGSGQVTLPDLEGKSMKEVARILSQLGLHLSPDGHGLAFKQSPAAGTRVPVGSTIKVSFQPL", -0.164],
  ["HMENSMDTDWDVSGVDPSQYRLLFSTLGAIAGVKDVGLNPDGLKIIHTPEALPAIKQAFDANNLKLKMRTN", -0.0945]
]}

Next item in the queue.
// query soluble fraction (log2) value for entry `HMNPHGVAIIDVRKGKASTLRSLATSVRSLGEWDQLKIPIFNLESLTSLVLWHGLDAIVKEPESLQSNLIL`
-0.513

----------
EXPERIMENTAL_PROTOCOL: soluble fraction after stress (log2 fold change); higher = more stays soluble; pooled small domains, quantitative proteomics
MEASUREMENT_SETUP: stress: 75 degC
Measured soluble fraction (log2) values are reported for all entries that follow.

{"columns": ["CHAIN_SEQUENCE", "RESULT"],
 "data": [
  ["HMNEPSSYGYAISVALDRNGLGTVKGGTLYPLLARLEQAAHVETRWEAGDGGPGRKYYTITDSGRS", -0.214],
  ["HMTEKSTRSVPQEHEGKRLDVAAALLFPVYSRSELARRIDAGYLLLNGKGSTPKTKVHELDLIELLEV", -0.601],
  ["HMIDRPLTLVEDYERFAGELAKITLRFMLDGRKRFNGRLAGFDEDGKIVLETSFGRFAFSFDEIDSARI", -3.08],
  ["HMFEYDEIMEQSVPKIAWGSLLTIMKKASSHKEMLWYINETYKNGWSRSMVLNQIAMASYERSLIE", -0.732],
  ["HMKRRSVIVSVVRAQVRQSADEAAAVVFEAEKNVSLDYLETMPGGWVKVRHRDGQTGFVRVNQIWG", -1.59]
]}

// query soluble fraction (log2) value for entry `HMEYMKQRLYDIIELFKRSFSPSFSEEEKKKLENVLQDDFLRKAYEQLSDEVFIEEKFREFDGY`
-2.88

// next record `HMGVITVRPPIVVRDFAIALNLKPFQVIGNLMELNKVVSVSSVIEEADARKVAERHGYTLEIRH`
-1.67

// next record `HMSQTDQALRHLIREAWATLPQRQQQAVELAYYEGLPDTEIAARLNQPVEEVKTSIVLGMAHLREALHSY`
-0.811

----------
EXPERIMENTAL_PROTOCOL: soluble fraction after stress (log2 fold change); higher = more stays soluble; pooled small domains, quantitative proteomics
MEASUREMENT_SETUP: stress: 75 degC
Measured soluble fraction (log2) values are reported for all entries that follow.
Write the number on its own, no unit after it.

Check out these entries, answers already filled in.
{"columns": ["CHAIN_SEQUENCE", "soluble fraction (log2)"],
 "data": [
  ["HMNSIQEQIEKYVYSLAPVTIERYESLKNGDIEDIEFEKLRKSISSKIINEKIDNKKQVAILSHLKKMYSD", -0.159],
  ["HMTQSQSLQSQFEQLEKAYQDNLHLLSPKQKLIIQEAGKIIQQLPQQAQIQAKVNLYQSLSAEISKESQQ", 0.1],
  ["HMSDLQTGDINQDGTVDEKDLSLLHSYNLELIKTISNAADLNEDGVINGLDEAYLKRLFLQNSDP", -0.122],
  ["HMNTEEKILEKEFLMLYSELGLQPKNIYELMENTGLKYEKLVEMLLQLQLKGLVEQPSYNYYSRL", -1.28],
  ["HMRQSQEVSGGERYRRLTAYLDTHPFITRKEYSGITGLLKNKALNDLNLLVNKGYLEAMGRGSHKVYVRPM", -0.86],
  ["HMQLPIGDVKLSVEHLSSGTALQDISFEVHRGEIFGFLGLVGAGRSETAETIFGLREKTDGKISIDGTVL", -0.0579],
  ["HMDIEITIPPEAKELDVSKILISGNIITDEQEFLDYLKQNNVAAFKDGNYKLNKNMTTEEIVNQIK", 0.691]
]}

Next item in the queue.
// query soluble fraction (log2) value for entry `HMASLSITVNGETRRAAPGSIADLVRAIGLDPAKVAVERNGEIAPRSTLADVALADGDVLEIVHFVG`
-0.359

----------
EXPERIMENTAL_PROTOCOL: soluble fraction after stress (log2 fold change); higher = more stays soluble; pooled small domains, quantitative proteomics
MEASUREMENT_SETUP: stress: 75 degC
Measured soluble fraction (log2) values are reported for all entries that follow.
Write the number on its own, no unit after it.

Check out these entries, answers already filled in.
{"columns": ["CHAIN_SEQUENCE", "MEASURED_PROPERTY", "RESULT"],
 "data": [
  ["HMKPTVKGHFTRKESNVGGYADVRGWGVAGTPSMMANQSKDTRRFSTLIVPGRSVNVHPSPTKEAIIWWQS", "soluble fraction (log2)", -0.224],
  ["HMANPMFAEIKKVQKQLNEMGYQAGPADGLWGNKTENAVKLLLSDNNLKWDGTFDQNEIKIIEEIFLSND", "soluble fraction (log2)", -0.241],
  ["HMELARLRPELDGNDIMRILGVPPGPVVGRAYTYLLELRINQGELGRERVTQLLLDWAAAEGISA", "soluble fraction (log2)", -2.76]
]}

Next item in the queue.
// query soluble fraction (log2) value for entry `HMPDAGQRRYLELVTALAGARSLTIDDLERRAIRFAEWGNGYSGRTARQFIDTLLQDRGVAEEL`
-0.731

----------
EXPERIMENTAL_PROTOCOL: soluble fraction after stress (log2 fold change); higher = more stays soluble; pooled small domains, quantitative proteomics
MEASUREMENT_SETUP: stress: 75 degC
Measured soluble fraction (log2) values are reported for all entries that follow.
Write the number on its own, no unit after it.

Check out these entries, answers already filled in.
{"columns": ["CHAIN_SEQUENCE", "soluble fraction (log2)"],
 "data": [
  ["HMDTHRLNYSDFVAEVQAQRVSKVVIDGYTIVGQRTNGETFETVRPALQDPKLVDDLLQNNVIIEGKQPE", -0.0116],
  ["HMGERVDGVVKFFNGQKGFGFIQREDGGPDAFVHISAVERAGMAGLDEGQRVSFELELDRRGKQAAINLTP", 0.108],
  ["HMFFMTMGEKIQLLRKKQNWSQETLAEKLSVSRQAVSLWERDESQPELDKLLKLAKIFSVTTDYLIDDSVT", -3.19]
]}

// query soluble fraction (log2) value for entry `HMRSSALDEIPGIGKQRKKNLLVHFTSVAKIKEASLDEIAAVPGMNRKAALVVVEFFQNQERE`
-2.28

// next record `HMSITKDNLSIGTNIRISGFSDIGRIISIPNKGNQVQVQIGSAKMNIKINSIVEIIKEEKDFNKNISN`
-1.48

// next record `HMKHKHHIIPKHKGGTDHPDNLIELTVEQHAKAHWVEFMLDGREEDYWAWKGLEGVASKKDIIYALSKR`
-0.0688

// next record `HMHPKTPDELLALMSEEQRGQIEQLAKLVLMAVSYSGASYYDAVTTMYPRMSEERRRIITHVLNTASP`
-0.908

// next record `HMSDLLYAHPTEKGFQLVNVTQKVVMVILKTAAPNVYTVKGKNAIVFKEGNSWFYSENHNKKLLNIK`
-3.18

----------
EXPERIMENTAL_PROTOCOL: soluble fraction after stress (log2 fold change); higher = more stays soluble; pooled small domains, quantitative proteomics
MEASUREMENT_SETUP: stress: 75 degC
Measured soluble fraction (log2) values are reported for all entries that follow.
Write the number on its own, no unit after it.

{"columns": ["CHAIN_SEQUENCE", "soluble fraction (log2)"],
 "data": [
  ["HMEETEVPPVTGYEQSKASEVLTGKGLIPDIITVADEETAAGYVIRTDPASGEKVPSGTTVKVYVSSGP", 0.248],
  ["HMFGGIEFGWSQLPDGRVEYIIQLDDQAIAALKNGRSLTSSLPPEVQNADRIRIQYGAGPVEKGLLLQ", -0.206],
  ["HMISDAEWTIMKALWQSEDKKMTLKEIAEAVADSGWSYTTVRTMVGRLVEKEAIEADESHPRNFRYSAA", -1.2],
  ["HMQEDKVRKLTEMGFAEDQAREALRKHDWDETMALNSL", 0.262],
  ["HMGVSEIGSPAWMESKLVTLASYEGSLDGLRTLWGGVAQHRARIPVESWDRLFAAKEEGKARLVKLGRT", -1.25]
]}

// query soluble fraction (log2) value for entry `HMTRLDLQNAFRVLPPEIQPAAVLFFLQERKQREIAKILGIGLPLVKYRIRKARELLAQFLRKEA`
-0.225

// next record `HMKNIFDWLKQINYHKQPADSFTEKDWELFNSYMVHRFMSMNREFIEVVNYVQEMPPQEKILIYNIYREF`
-2.16

// next record `HMTKLPLLVELSRIIPTDTWVKKIKFSLGSVEFVGISKSASRLLPIVENSSYFHDTKFIGTIVT`
-0.547

// next record `HMDEDLQEALRKLNPIQANERKLLLKMLEQHRWNVSSVAKAFDVSRNTLYRRLHKLHIPLSNPSE`
-1.33

// next record `HMNKTVKIPNVSNLSREDAESVLKENGISVNSEVKQIESDTIEKGKVVKTDPSIGTSVKKGRSITIYVSSG`
0.544
